Assay System: NRAS G12C (Homo sapiens (Human), UniProt P01111+P62937, G12C)
Sequence (P01111 whole entry G12C): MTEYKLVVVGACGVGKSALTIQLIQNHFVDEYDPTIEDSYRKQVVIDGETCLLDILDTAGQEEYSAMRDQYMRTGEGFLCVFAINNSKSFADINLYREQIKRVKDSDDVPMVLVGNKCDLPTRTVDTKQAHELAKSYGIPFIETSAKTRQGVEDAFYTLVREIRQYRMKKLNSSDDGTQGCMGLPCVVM
Sequence (P62937 whole entry): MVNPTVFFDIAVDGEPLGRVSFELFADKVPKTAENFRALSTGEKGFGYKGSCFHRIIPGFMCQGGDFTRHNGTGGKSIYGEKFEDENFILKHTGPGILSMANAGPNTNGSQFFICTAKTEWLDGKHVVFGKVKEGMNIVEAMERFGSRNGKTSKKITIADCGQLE
Assay: Ras-Raf (BRAF RBD) disruption / FRET / MOA assay, NRAS G12C
Assay type: biochemical
Assay Conditions: read-out: IC50* NRAS G12C FRET data
Each entry below carries its recorded IC50.

C=CC(=O)N1CC[C@H](N(C)C(=O)N(C)[C@H](C(=O)N[C@H]2Cc3nc(cs3)-c3ccc4c(c3)c(c(-c3cccnc3[C@H](C)OC)n4CC)CC(C)(C)COC(=O)[C@@H]3CCCN(N3)C2=O)C(C)C)C1 (atropisomer, axis not shown) [Example A728] :: 100 to 1000 nM
C=CC(=O)N1CC(OC[C@H](C(=O)N[C@H]2C[C@H]3CN(CCO3)c3ccc4c(c3)c(c(-c3cccnc3[C@H](C)OC)n4CC(F)(F)F)CC(C)(C)COC(=O)[C@@H]3CCCN(N3)C2=O)C(C)C)C1 (atropisomer, axis not shown) [Example A723] :: 100 to 1000 nM
C=CC(=O)N1CC[C@](F)(C(=O)N(C)[C@H](C(=O)N[C@H]2Cc3cccc(c3)-c3ccc4c(c3)c(c(-c3cccnc3[C@H](C)OC)n4CC)CC(C)(C)COC(=O)[C@@H]3CCCN(N3)C2=O)C(C)C)C1 (atropisomer, axis not shown) [Example A501] :: 10 to 100 nM

Shifting focus to the compound that follows.
q: Report IC50 for CCn1c(-c2cccnc2[C@H](C)OC)c2c3cc(ccc31)-c1cccc(c1)C[C@H](NC(=O)[C@H](C(C)C)N(C)C(=O)[C@H]1CCN(C(=O)/C=C/CN3CC(OC)C3)C1)C(=O)N1CCC[C@H](N1)C(=O)OCC(C)(C)C2 (atropisomer, axis not shown) [Example A204] please.
a: 10 to 100 nM

* * *

Assay System: KRAS WT (Homo sapiens (Human), UniProt P01116+P62937)
Sequence (P01116-2 other isoform, or with tags, fused parts or gaps, one chain of several): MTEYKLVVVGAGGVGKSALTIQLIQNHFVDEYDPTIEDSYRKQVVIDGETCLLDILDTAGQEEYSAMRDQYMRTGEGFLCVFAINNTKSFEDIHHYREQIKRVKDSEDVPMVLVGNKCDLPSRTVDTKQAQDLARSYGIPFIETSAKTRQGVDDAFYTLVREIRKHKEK
Assay: Ras-Raf (BRAF RBD) disruption / FRET / MOA assay, KRAS WT
Assay type: biochemical
Assay Conditions: read-out: IC50* KRAS WT FRET data
pIC50: −log10 of the molar value.
Reported Endpoint: pIC50

Solved cases below.
C=CC(=O)N1CCC2(CCN([C@H](C(=O)N[C@H]3Cc4cc(O)cc(c4)-c4ccc5c(c4)c(c(-c4cccnc4[C@H](C)OC)n5CC)CC(C)(C)COC(=O)[C@@H]4CCCN(N4)C3=O)C(C)C)C2=O)C1 (stereo partly drawn) :: 7.00 to 8.00
C=CC(=O)N1CC[C@H](C(=O)N(C)[C@H](C(=O)N[C@H]2Cc3cc(C(F)F)cc(n3)-c3ccc4c(c3)c(c(-c3cccnc3[C@H](C)OC)n4CC)CC(C)(C)COC(=O)[C@@H]3CCCN(N3)C2=O)C(C)C)C1 (atropisomer, axis not shown) :: < 5.00
C=CC(=O)N1CC[C@H](C(=O)N(C)[C@H](C(=O)N[C@H]2Cc3cc(O)cc(c3)-c3ccc4c(c3)c(c(-c3cccnc3[C@@H](OC)C3CC3)n4CC)CC(C)(C)COC(=O)[C@@H]3CCCN(N3)C2=O)C(C)C)C1 (atropisomer, axis not shown) [Example A207] :: 6.00 to 7.00
C=CC(=O)N1CCC(C(=O)N(C)[C@H](C(=O)N[C@H]2Cc3cc(O)cc(c3)-c3ccc4c(c3)c(c(-c3cccnc3[C@H](C)OC)n4CC)CC(C)(C)COC(=O)[C@@H]3CCCN(N3)C2=O)C(C)C)CC1 (atropisomer, axis not shown) :: 7.00 to 8.00
C=CC(=O)N1CC[C@@]2(COCCN2C(=O)N(C)[C@H](C(=O)N[C@H]2Cc3nc(cs3)-c3ccc4c(c3)c(c(-c3cccnc3[C@H](C)OC)n4CC)CC(C)(C)COC(=O)[C@@H]3CCCN(N3)C2=O)C(C)C)C1 (atropisomer, axis not shown) :: 6.00 to 7.00
C=CC(=O)N1CCO[C@H]2CN(C(=O)N(C)[C@H](C(=O)N[C@H]3Cc4cccc(c4)-c4ccc5c(c4)c(c(-c4cccnc4[C@H](C)OC)n5CC)CC(C)(C)COC(=O)[C@@H]4CCCN(N4)C3=O)C(C)C)C[C@H]21 (atropisomer, axis not shown) :: 6.00 to 7.00
C=CC(=O)N1CC[C@]2(COCCN2C(=O)N(C)[C@H](C(=O)N[C@H]2Cc3nc(cs3)-c3ccc4c(c3)c(c(-c3cccnc3[C@H](C)OC)n4CC)CC(C)(C)COC(=O)[C@@H]3CCCN(N3)C2=O)C(C)C)C1 (atropisomer, axis not shown) :: 6.00 to 7.00
CC#CC(=O)N1CC[C@@]2(CCN([C@H](C(=O)N[C@H]3Cc4cccc(c4)-c4ccc5c(c4)c(c(-c4cccnc4[C@H](C)OC)n5CC)CC(C)(C)COC(=O)[C@@H]4CCCN(N4)C3=O)C(C)C)C2=O)C1 (atropisomer, axis not shown) :: 5.00 to 6.00
C=CC(=O)N1CCC(C(=O)N(C)[C@H](C(=O)N[C@H]2Cc3cc(O)cc(c3)-c3ccc4c(c3)c(c(-c3ccccc3CCOC)n4CC)CC(C)(C)c3coc(n3)[C@@H]3CCCN(N3)C2=O)C(C)C)C1 (single isomer, unassigned) :: < 5.00
C=CC(=O)N1CC[C@H](C(=O)N(C)[C@H](C(=O)N[C@H]2Cc3cccc(c3)-c3ccc4c(c3)c(c(-c3cccnc3[C@H](C)OC)n4CC(F)F)CC(C)(C)COC(=O)[C@@H]3CCCN(N3)C2=O)C(C)C)C1 (atropisomer, axis not shown) :: 5.00 to 6.00

q: Look up pIC50: C=CC(=O)N1CC[C@]2(C1)OCN([C@H](C(=O)N[C@H]1Cc3cccc(n3)-c3ccc4c(c3)c(c(-c3cccnc3[C@H](C)OC)n4CC)CC(C)(C)COC(=O)[C@@H]3CCCN(N3)C1=O)C(C)C)C2=O (atropisomer, axis not shown)
a: 5.00 to 6.00

q: Same again, this time with CO[C@@H](C)c1ncccc1-c1c2c3cc(ccc3n1CC(F)(F)F)N1CCO[C@@H](C[C@H](NC(=O)[C@@H](COC3CN(C(=O)C#CC(C)(C)N(C)C)C3)C(C)C)C(=O)N3CCC[C@H](N3)C(=O)OCC(C)(C)C2)C1 (atropisomer, axis not shown)
a: 5.00 to 6.00
